biological target: PYY receptor of rat jejunal epithelial plasma membranes (rat); experiment: competitive binding, done as described above (125I-PYY, rat jejunal membranes)
Square brackets hold non-standard residues; d marks the D form. Phe(4-Cl) = N[C@@H](Cc1ccc(Cl)cc1)C(=O)O
Could you please report measured IC50 for the items listed next?
Answers are plain numbers, in nM.

{"columns": ["BINDER", "RECORDED VALUE"],
 "data": [
  ["Ac-YSLRHFLNLVTRQRY-NH2 [N-α-Ac-[Tyr^22, Phe^27 ]PYY(22-36)]", 0.1],
  ["FSLRHFLNLVTRQRY (not fully specified; N-terminal acetyl; C-terminal amide) [N-α-Ac-[Phe^22,27 ]PYY(22-36)]", 11.2]
]}

Next item in the queue.
Enquiry: # lookup: IC50 of Ac-ASLRH[Phe(4-Cl)]LNLVTRQRY-NH2 [N-α-Ac-[Pcp^27 ]PYY(22-36)]
Return: 1.58
